pIC50 by entry:
# TGT: PD-1-Ig binding to PD-L1-TVMV-His (PD-L1-His) (Homo sapiens)
# Construct: hPDL1(19-239)-TVMV-His; made in house; host or cells: HEK293T cells
# Sequence (Q9NZQ7 with tags, fused parts or gaps): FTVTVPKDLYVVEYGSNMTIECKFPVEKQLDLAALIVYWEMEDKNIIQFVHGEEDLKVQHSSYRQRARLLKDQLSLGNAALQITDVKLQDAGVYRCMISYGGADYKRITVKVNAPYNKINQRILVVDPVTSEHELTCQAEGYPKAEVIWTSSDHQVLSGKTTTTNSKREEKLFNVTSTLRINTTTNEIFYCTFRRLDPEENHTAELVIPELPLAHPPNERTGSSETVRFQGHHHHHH
# ASSAY TEXT: PD-1/PD-L1 Homogenous Time-Resolved Fluorescence (HTRF) binding assay
# CONDITION DETAILS: PD-1-Ig (20 nM) / PD-L1-His (10 nM); range classes
pIC50: −log10 of the molar value. Non-standard residues stand in square brackets, D forms with d. Residues, ends and D or L forms follow the SMILES beside them. Trp(1-CH2COOH) = N[C@@H](Cc1cn(CC(=O)O)c2ccccc12)C(=O)O; Hyp = O=C(O)[C@@H]1C[C@@H](O)CN1; NMeNle = CCCC[C@H](NC)C(=O)O; NMeA = CN[C@@H](C)C(=O)O; Dab = NCC[C@H](N)C(=O)O; Dap = NC[C@H](N)C(=O)O; AEA = NCCOCC(=O)O

Here is how some compounds turned out for pIC50.
{"COMPOUND": "CCCC[C@H]1C(=O)N(C)[C@@H](CCCC)C(=O)N[C@@H](CC(C)C)C(=O)N[C@H](C(N)=O)CNCC(=O)N[C@@H](Cc2ccc(O)cc2)C(=O)N2CCCC[C@H]2C(=O)N[C@@H](CC(N)=O)C(=O)N2CCC[C@H]2C(=O)N[C@@H](CCC(N)=O)C(=O)N[C@@H](CCC(N)=O)C(=O)N2C[C@H](O)C[C@H]2C(=O)N[C@@H](Cc2c[nH]c3ccccc23)C(=O)N[C@@H](CC(N)=O)C(=O)N[C@@H](Cc2cn(CC(=O)O)c3ccccc23)C(=O)N1C", "TGT": "PD-1-Ig binding to PD-L1-TVMV-His (PD-L1-His) (Homo sapiens)", "pIC50": "8.00 to 9.00"}
{"COMPOUND": "CCCC[C@H]1C(=O)N(C)[C@@H](CCCC)C(=O)N[C@@H](CC(C)C)C(=O)NCCOCC(=O)N[C@@H](Cc2ccc(O)cc2)C(=O)N(C)[C@@H](C)C(=O)N[C@@H](CC(N)=O)C(=O)N2CCC[C@H]2C(=O)N[C@@H](CN)C(=O)N[C@@H](CC(C)C)C(=O)N2C[C@H](O)C[C@H]2C(=O)N[C@@H](Cc2c[nH]c3ccccc23)C(=O)N[C@@H](CCN)C(=O)N[C@@H](Cc2cn(CC(=O)O)c3ccccc23)C(=O)N1C [Example 10502] (cyclo([AEA]Y[NMeA]NP[Dap]L[Hyp]W[Dab][Trp(1-CH2COOH)][NMeNle][NMeNle]L))", "TGT": "PD-1-Ig binding to PD-L1-TVMV-His (PD-L1-His) (Homo sapiens)", "pIC50": "8.00 to 9.00"}
{"COMPOUND": "CCCC[C@H]1C(=O)N(C)[C@@H](CCCC)C(=O)N[C@@H](CCC(=O)O)C(=O)N[C@H](C(N)=O)CNCC(=O)N[C@@H](Cc2ccc(F)cc2)C(=O)N2CCCC[C@H]2C(=O)N[C@@H](CC(N)=O)C(=O)N2CCC[C@H]2C(=O)N[C@@H](CCC(N)=O)C(=O)N[C@@H](CCC(=O)O)C(=O)N2C[C@H](O)C[C@H]2C(=O)N[C@@H](Cc2c[nH]c3ccccc23)C(=O)N[C@@H](CC(N)=O)C(=O)N[C@@H](Cc2cn(CC(=O)O)c3ccccc23)C(=O)N1C", "TGT": "PD-1-Ig binding to PD-L1-TVMV-His (PD-L1-His) (Homo sapiens)", "pIC50": "8.00 to 9.00"}
{"COMPOUND": "CCCC[C@H]1C(=O)N(C)[C@@H](CCCC)C(=O)N[C@@H](CC(C)C)C(=O)N[C@H](C(=O)NCC(N)=O)CCCNCC(=O)N[C@@H](Cc2ccc(O)cc2)C(=O)N(C)[C@@H](C)C(=O)N[C@@H](CC(N)=O)C(=O)N2CCC[C@H]2C(=O)N[C@@H](Cc2cnc[nH]2)C(=O)N[C@@H](CCC(N)=O)C(=O)N2C[C@H](O)C[C@H]2C(=O)N[C@@H](Cc2c[nH]c3ccccc23)C(=O)NCC(=O)N[C@@H](Cc2cn(CC(=O)O)c3ccccc23)C(=O)N1C", "TGT": "PD-1-Ig binding to PD-L1-TVMV-His (PD-L1-His) (Homo sapiens)", "pIC50": "7.00 to 8.00"}
{"COMPOUND": "CCCC[C@H]1C(=O)N(C)[C@@H](CCCC)C(=O)NC(CC(C)C)C(=O)N[C@H](C(N)=O)CNCC(=O)N[C@@H](Cc2ccc(O)cc2)C(=O)N(C)[C@@H](C)C(=O)N[C@@H](CC(N)=O)C(=O)N2CCC[C@H]2C(=O)N[C@@H](CN)C(=O)N[C@@H](CC(C)C)C(=O)N2C[C@H](O)C[C@H]2C(=O)N[C@@H](Cc2c[nH]c3ccccc23)C(=O)N[C@@H](CCN)C(=O)N[C@@H](Cc2cn(CC(=O)O)c3ccccc23)C(=O)N1C (stereo partly shown)", "TGT": "PD-1-Ig binding to PD-L1-TVMV-His (PD-L1-His) (Homo sapiens)", "pIC50": "8.00 to 9.00"}
{"COMPOUND": "CCCC[C@H]1C(=O)N(C)[C@@H](CCCC)C(=O)N[C@@H](CC(C)C)C(=O)N[C@H](C(N)=O)COCC(=O)N[C@@H](Cc2ccc(F)cc2)C(=O)N2CCCC[C@H]2C(=O)N[C@@H](CC(N)=O)C(=O)N2CCC[C@H]2C(=O)N[C@@H](CN)C(=O)N[C@@H](CC(C)C)C(=O)N2C[C@H](O)C[C@H]2C(=O)N[C@@H](Cc2c[nH]c3ccccc23)C(=O)N[C@@H](CCN)C(=O)N[C@@H](Cc2cn(CC(=O)O)c3ccccc23)C(=O)N1C", "TGT": "PD-1-Ig binding to PD-L1-TVMV-His (PD-L1-His) (Homo sapiens)", "pIC50": "7.00 to 8.00"}

INPUT: Please look up its pIC50: CCCC[C@H]1C(=O)N(C)[C@@H](CCCC)C(=O)N[C@@H](CCC(=O)O)C(=O)N[C@H](C(N)=O)CNCC(=O)N[C@@H](Cc2ccc(F)cc2)C(=O)N2CCCC[C@H]2C(=O)N[C@@H](CC(N)=O)C(=O)N2CCC[C@H]2C(=O)N[C@@H](Cc2c[nH]cn2)C(=O)N[C@@H](CCC(=O)O)C(=O)N2C[C@H](O)C[C@H]2C(=O)N[C@@H](Cc2c[nH]c3ccccc23)C(=O)N[C@@H](C)C(=O)N[C@@H](Cc2cn(CC(=O)O)c3ccccc23)C(=O)N1C
OUTPUT: 8.00 to 9.00
